assay: in vivo; set-up: species or system BALBc mice; conditions: mouse, topical or ocular, Ventral skin Se
assay readout: concentration at 6552 h (ng/g)
Answer with a number only, understood to be in ng/g.

Lab note: measured concentration at 6552 h of "C[Se]CC[C@H](N)C(=O)O" was 843

* * *

assay: in vivo; parameters: species or system BALBc mice; details: mouse, po, Liver Se
assay readout: concentration at 6552 h (ng/g)
I only need the number, in ng/g, no unit after it.

Consider C[Se]CC[C@H](N)C(=O)O [L-selenomethionine] . Its measured concentration at 6552 h is 1560

* * *

assay: tissue Se in BALBC mice after 3 months; details: mouse, in vivo, topical or ocular, tissue Se, ventral skin
assay readout: concentration at 2190 h (ng/g)
# output: bare number, implied unit ng/g

Sample "C[Se]CC[C@H](N)C(=O)O" ; concentration at 2190 h observed: 1860
